- assay.name: solvent given as SMILES
- reported.conditions: in CCOC(C)=O
fluorescence lifetime vs 2 ns: at or above is yes (1), below is no (0).

1) CN(C)c1ccc(/C=C2\CC/C(=C\c3ccc(N(C)C)cc3)C2=O)cc1 no (0)
2) O=C(O)COc1ccc2[nH]c3c(c2c1)CCCC3=O no (0)
3) Cc1cc(=O)c2ccc(N)cc2o1 no (0)
4) O=c1cc(C(F)(F)F)c2cc3c4c(c2o1)CCCN4CCC3 yes (1)
5) CN(C)c1ccc(-c2nc3c(c4c2-c2ccccc2CC4)-c2ccccc2CC3)cc1 no (0)
6) COc1ccc(/C=C/C2=[O+][B-](F)(F)OC(/C=C/c3ccc(OC)cc3)=C2c2ccccc2)cc1 no (0)
7) COc1ccc(C2=C3C=c4c(oc5cc6c(cc45)[C@H]4CC[C@]5(C)C(=O)CC[C@H]5[C@@H]4CC6)=[N+]3[B-](F)(F)n3c2cc2c4cc5c(cc4oc23)CC[C@@H]2[C@@H]5CC[C@]3(C)C(=O)CC[C@@H]23)cc1 yes (1)
8) COc1nc(Nc2ccc3c4c(cccc24)C(=O)c2ccccc2-3)nc(OC)n1 yes (1)

* * *

- assay.name: solvent given as SMILES
- reported.conditions: in CC#N
observation.type: log10(fluorescence lifetime) (log10 of the value in ns)

compound	data.value
Nc1ccc2[nH]ncc2c1	0.67
O=c1cccc2n1C[C@@H]1CNC[C@H]2C1	-0.54
Fc1ccc(/C=C/c2nc3c4ccccc4c4ccccc4c3o2)cc1	0.27
CCCn1c2cccc3oc4cccc5oc6cccc1c6[c+](c45)c32	1.37
CN(C)c1c2ccccc2cc2ccccc12	0.59
C[n+]1cc2ccc3c[n+](C)c4ccccc4c3c2c2ccccc21	0.76
c1ccc2c(-c3cc(-c4nccs4)nc(-c4nccs4)c3)c3ccccc3cc2c1	0.37
CCCCCCCCN1c2ccc(C#Cc3ccc(OC)cc3)cc2Sc2cc(C=O)ccc21	0.78
c1ccc(N2c3ccccc3Sc3cc(-c4cccc5nc6ccccc6cc45)ccc32)cc1	0.88
COC(C)CC1=N/C(=C\c2cccc(N(C)C)c2)C(=O)N1C (stereo not given)	0.89
COC(=O)c1ccc(C#Cc2ccc(N(C)C)cc2)cc1	0.17
Cn1nc(-c2ccccc2)c2n[nH]nc2/c1=N\c1ccccn1	-0.48
CNc1cccc2c1C(=O)c1ccccc1C2=O	-0.69
N#Cc1ccc(/C=C/c2c3ccccc3cc3ccccc23)cc1	-0.17
c1ccc(-c2cc(-c3ccc(-c4nc(-c5ccccn5)c(-c5ccccn5)[nH]4)cc3)cc(-c3ccccn3)n2)nc1	0.16
C(=C\c1ccc(N(c2ccccc2)c2ccccc2)cc1)/c1ccccc1	0.14
Cc1oc2c(Cl)cc3c(C)cc(=O)oc3c2c1C	-0.82
Cc1ccc(-c2ccc(/C=C/c3ccc(F)cc3)cn2)nc1	0.00
Cn1nc(-c2ccccc2)c2n[nH]nc2c1=O	0.30
Cn1ccc(=O)n(C)c1=O	-4.00
F[B-]1(F)n2c(-c3cccs3)cc(-c3cccs3)c2N=C2C(c3cccs3)=CC(c3cccs3)=[N+]21	0.35
N#C/C(=C\c1ccc(C#N)cc1)c1nc(-c2ccc(Cl)cc2)cs1	0.45
Cc1cccc2nc3c(=O)[nH]c(=O)[nH]c3nc12	-0.15
Cn1ccc(-c2nc3ccccc3nc2/C=C/N2CCCC2)c1	0.78
CC(C)(C)C1Nc2ccccc2C(=O)N1Cc1ccccc1 (stereo not given)	0.39
O=C(O)c1ccc2ccc3cccc4ccc1c2c34	0.95
CN(C)CCCN1c2ccccc2CCc2ccccc21	-0.07
O=C1c2ccccc2-c2ccccc21	1.25
COC(=O)[C@]12N=N[C@](C(=O)OC)(C3C4C5C4C5C31)C1C3C4C3C4C12 (stereo not given in full)	2.22
O=C([O-])c1ccccc1C1=c2cc3c4c(c2Oc2c1cc1c5c2CCCN5CCC1)CCC[N+]=4CCC3	0.72
c1cc2c3c(cccc3c1)C(N1CCOCCOCCN(C3=Nc4cccc5cccc3c45)CCOCC1)=N2	-0.29
Cc1ccc(C2=C3C=C(I)C=[N+]3[B-](F)(F)n3c2cc(I)c3I)cc1	-0.85
N#Cc1ccc(N)cc1	0.41
Cc1cc2nc3[nH]c(=O)[nH]c(=O)c3nc2cc1C	-0.19
COC(=O)c1c2ccccc2nc2ccccc12	-0.05
COc1ccc(-n2c(C)ccc2C)cc1	0.70
c1ccc2c(-c3ccc4sc5ccc(-c6c7ccccc7cc7ccccc67)cc5c4c3)c3ccccc3cc2c1	0.63
N#C/C(=C\c1ccc(C(F)(F)F)cc1)c1nc(-c2ccc(Cl)cc2)cs1	0.08
N#C/C(=C\c1ccc(C#N)cc1)c1nc(-c2ccccc2)cs1	0.53
CCOC(=O)c1ccc(NC(=O)COc2cc3c4c([nH]c3c(C)c2C)C(=O)CCC4)cc1	0.02

* * *

- assay.name: solvent given as SMILES
- reported.conditions: in CCO
observation.type: fluorescence lifetime (ns)

compound	observation.type	data.value
c1ccc2c(c1)[nH]c1ccccc12	fluorescence lifetime	16.1
Nc1ccc2c(-c3ccccc3C(=O)[O-])c3ccc(=[NH2+])cc-3oc2c1	fluorescence lifetime	4
CC(C)(C)NC1=C2C=CC=[N+]2[B-](F)(F)n2cccc21	fluorescence lifetime	0.0307
N#Cc1cccc(N)c1	fluorescence lifetime	6.2
CCCC(=O)c1c2c(c(C(=O)CCC)c3c1OC(CC(=O)OC)(C(=O)OC)O3)OCO2	fluorescence lifetime	17.7
c1coc(-c2nc3ccccc3[nH]2)c1	fluorescence lifetime	1.55
CCC1=C(C)C2=C(C)c3c(I)c(I)c(I)n3[B-](F)(F)[N+]2=C1C	fluorescence lifetime	0.221
CC(=O)OC[C@@H]1O[C@H](n2cnc3c2N=CN2Cc4c[n+](C)c(C)nc4N=C32)[C@@H](O)[C@H]1O	fluorescence lifetime	3.24
Cc1oc2c(Cl)cc3c(C)cc(=O)oc3c2c1C	fluorescence lifetime	0.79
CCOC(=O)CCCCCn1c2ccc(OC)cc2c(=O)c2cc3c(cc21)c(=O)c1cc(OC)ccc1n3CCCCCC(=O)OCC	fluorescence lifetime	13.4
Cc1ccc(-c2ccc(/C=C/c3cccn3C)cn2)nc1	fluorescence lifetime	0.92
CCC1=C(C)C2=Cc3cc(I)cn3[B-](F)(F)[N+]2=C1C	fluorescence lifetime	0.349
CCN(CC)c1ccc2c(-c3ccc(S(=O)(=O)[O-])cc3S(=O)(=O)[O-])c3ccc(=[N+](CC)CC)cc-3oc2c1	fluorescence lifetime	2.96
CSc1sc(C(=O)c2ccccc2)c2nn[nH]c(=O)c12	fluorescence lifetime	0.28
O=C1c2ccccc2-c2cccc(O)c21	fluorescence lifetime	4.85
CN(C)c1ccc(/C=C2\CC/C(=C\c3ccc(N(C)C)cc3)C2=O)cc1	fluorescence lifetime	0.34
Nc1ccccc1C(=O)O	fluorescence lifetime	7.6
N#CC1=c2cc3c4c(c2Oc2c1cc1c5c2CCCN5CCC1)CCC[N+]=4CCC3	fluorescence lifetime	1.93
Cn1nc(-c2ccccc2)c2n[nH]nc2c1=O	fluorescence lifetime	1.9
O=Cc1cnc(-c2c3ccccc3cc3ccccc23)nc1	fluorescence lifetime	2.3
c1ccc(-c2oc(-c3ccccc3)c3ccccc23)cc1	fluorescence lifetime	4.72
NS(=O)(=O)c1ccc(N2N=C(c3ccc(O)cc3)CC2c2ccc(Cl)cc2)cc1 (stereo not given)	fluorescence lifetime	1.88
COc1ccc(-c2nc3ccccc3nc2/C=C/N2CCCC2)s1	fluorescence lifetime	0.67
Cc1cc(=O)oc2c1cc(Cl)c1occ(C)c12	fluorescence lifetime	0.21
CCC(=O)c1ccc2cc(N(C)C)ccc2c1	fluorescence lifetime	3.65
CCN(CC)c1ccc2c(-c3ccccc3C(=O)[O-])c3ccc(=[N+](CC)CC)cc-3oc2c1	fluorescence lifetime	2.96
CN(C)c1ccc2c(-c3ccc(C(=O)[O-])cc3C(=O)[O-])c3ccc(=[N+](C)C)cc-3oc2c1	fluorescence lifetime	3.26
COC(=O)c1c2ccccc2nc2ccccc12	fluorescence lifetime	0.8
Nc1ccc2c(c1)C(=O)c1ccc(N)cc1C2=O	fluorescence lifetime	0.47
CC(C)c1cc(C(C)C)c(-c2nnc(-c3ccc(-n4c5ccccc5c5ccccc54)cc3)o2)c(C(C)C)c1	fluorescence lifetime	2.19
COc1ccc(-c2ccc(-c3ccc(C#N)s3)s2)cc1	fluorescence lifetime	0.93
CCOC(=O)c1ccccc1-c1c2ccc(=O)cc-2oc2cc(OC(=O)[C@H](CO[Si](C)(C)C(C)(C)C)NC(=O)OC(C)(C)C)ccc12	fluorescence lifetime	3.65
Cc1cc(C)c(-c2nnc(-c3ccc(-n4c5ccccc5c5ccccc54)c(C)c3)o2)c(C)c1	fluorescence lifetime	1.94
Cc1cccc2nc3c(=O)[nH]c(=O)[nH]c3nc12	fluorescence lifetime	1.35
O=C(O)c1c2ccccc2nc2ccccc12	fluorescence lifetime	0.6

* * *

- assay.name: solvent given as SMILES
- reported.conditions: in O=P(c1ccccc1)(c1ccccc1)c1ccccc1Oc1ccccc1P(=O)(c1ccccc1)c1ccccc1
observation.type: fluorescence lifetime (ns)

1. Fc1cc(-c2nc(-c3ccccc3)nc(-c3ccccc3)n2)ccc1-n1c2ccccc2c2c3c(ccc21)C1(c2ccccc2-c2ccccc21)c1ccccc1-3 8.3
2. c1ccc(-c2cc(-c3ccc(N4c5ccccc5C(c5ccccc5)(c5ccccc5)c5ccccc54)cn3)nc(-c3ccccc3)n2)cc1 13.3
3. Cc1c(-c2nc(-c3ccccc3)nc(-c3ccccc3)n2)ccc(-n2c3ccccc3c3cc4c(cc32)C2c3ccccc3C4c3ccccc32)c1C 10
4. CC(C)(C)c1ccc2c(c1)c1cc(C(C)(C)C)ccc1n2-c1cccc(-n2c3ccc(C(C)(C)C)cc3c3cc(C(C)(C)C)ccc32)c1C#N 6.8
